target: HIV-1 Env of isolate MGRM-D-013 (subtype D) (HIV-1); test: cell-based or functional assay
Attribute: IC50 (neutralization)
MEASURED QUANTITY: IC50 (neutralization)

BINDER | VALUE MEASURED
PGT-130 (antibody, V domains shown) VH: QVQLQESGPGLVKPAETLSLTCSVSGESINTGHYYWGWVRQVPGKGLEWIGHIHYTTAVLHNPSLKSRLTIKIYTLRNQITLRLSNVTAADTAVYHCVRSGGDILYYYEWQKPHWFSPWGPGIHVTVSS VL: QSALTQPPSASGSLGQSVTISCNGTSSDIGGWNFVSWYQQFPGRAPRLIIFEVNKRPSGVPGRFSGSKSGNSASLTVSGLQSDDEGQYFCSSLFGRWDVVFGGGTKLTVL | 0.429 µg/mL
PGT-126 (antibody, V domains shown) VH: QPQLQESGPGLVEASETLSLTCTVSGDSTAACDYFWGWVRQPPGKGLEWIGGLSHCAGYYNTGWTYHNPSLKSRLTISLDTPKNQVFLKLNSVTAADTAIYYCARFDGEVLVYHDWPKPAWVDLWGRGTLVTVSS VL: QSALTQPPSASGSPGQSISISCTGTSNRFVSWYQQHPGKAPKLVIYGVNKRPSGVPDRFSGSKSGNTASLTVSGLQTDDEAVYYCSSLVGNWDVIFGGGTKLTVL | > 50 µg/mL
PGT-123 (antibody, V domains shown) VH: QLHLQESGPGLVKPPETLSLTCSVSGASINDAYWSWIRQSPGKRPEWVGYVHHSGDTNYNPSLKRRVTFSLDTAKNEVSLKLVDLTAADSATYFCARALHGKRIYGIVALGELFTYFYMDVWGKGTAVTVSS VL: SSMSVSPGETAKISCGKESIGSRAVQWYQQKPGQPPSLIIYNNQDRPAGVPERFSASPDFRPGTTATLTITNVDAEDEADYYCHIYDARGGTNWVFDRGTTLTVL | > 50 µg/mL
